targetSystem: PPARγ (Homo sapiens, UniProt P37231)
Sequence (P37231 238-503 limits assumed): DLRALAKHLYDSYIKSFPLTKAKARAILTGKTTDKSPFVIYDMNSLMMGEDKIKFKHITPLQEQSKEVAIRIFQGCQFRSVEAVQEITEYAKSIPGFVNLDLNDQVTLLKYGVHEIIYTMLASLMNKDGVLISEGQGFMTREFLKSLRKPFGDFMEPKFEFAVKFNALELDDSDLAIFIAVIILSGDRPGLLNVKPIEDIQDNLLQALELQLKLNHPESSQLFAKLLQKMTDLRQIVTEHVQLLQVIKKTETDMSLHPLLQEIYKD
methodNotes: HG5LN reporter cell assay, PPARγ-mediated transcription
Assay type: cell-based
Set-up: expressed in transfected cells; host or cells: HG5LN (HeLa-derived, GAL4RE-luciferase)
particulars: inhibition of agonism by 30 nM rosiglitazone, 16 h incubation, mean of 3 experiments ± SEM
endpoint: IC50 (nM)

smilesRepresentation	unitSpec	recordedValue
O=C(Nc1ccccc1)c1cc([N+](=O)[O-])ccc1Cl	nM	4
CCC(=O)NC[C@H](Cc1ccc(OCCc2nc(-c3ccccc3)oc2C)cc1)N/C(C)=C\C(=O)c1ccc(C(F)(F)F)cc1	nM	210

----------
targetSystem: PPARα (Homo sapiens)
Sequence (Q07869 239-466 limits assumed): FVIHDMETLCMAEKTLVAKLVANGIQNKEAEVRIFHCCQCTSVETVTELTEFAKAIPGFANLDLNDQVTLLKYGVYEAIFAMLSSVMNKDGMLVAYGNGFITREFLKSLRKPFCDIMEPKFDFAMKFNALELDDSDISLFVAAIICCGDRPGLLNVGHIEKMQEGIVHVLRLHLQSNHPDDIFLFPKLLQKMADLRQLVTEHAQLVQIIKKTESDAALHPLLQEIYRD
methodNotes: LanthaScreen TR-FRET binding assay, PPARα
particulars: 2 h incubation, mean of 3 replicates ± SEM
Measured IC50, listed per entry for reference.
endpoint: IC50

molecule	recordedValue
CCC(=O)NC[C@H](Cc1ccc(OCCc2nc(-c3ccccc3)oc2C)cc1)N/C(C)=C\C(=O)c1ccc(C(F)(F)F)cc1 [GW6471]	95.3 nM
O=C(Nc1ccccc1)c1cc([N+](=O)[O-])ccc1Cl [GW9662]	214 nM

----------
targetSystem: PPARγ (Homo sapiens, UniProt P37231)
methodNotes: LanthaScreen TR-FRET binding assay, PPARγ
particulars: 2 h incubation, mean of 3 replicates ± SEM
Procedure: The LanthaScreen™ TR-FRET binding assay was performed following the manufacturer's guidelines (PV4894, Invitrogen) as follows, 20 mM stock solution of the ligand or control in DMSO were serially diluted using 100% DMSO to produce a range of concentrations from 100 μM to 1 pM. […] Results are expressed as the ratio of fluorescence intensity at 520 nm (Fluormone emission) and 490 nm (Tb emission). […] For each compound three serial dilutions were prepared and measured separately. […]
endpoint: IC50 (nM)

molecule	endpoint	recordedValue
O=C(Nc1ccccc1)c1cc([N+](=O)[O-])ccc1Cl [GW9662]	IC50	12.4
CCC(=O)NC[C@H](Cc1ccc(OCCc2nc(-c3ccccc3)oc2C)cc1)N/C(C)=C\C(=O)c1ccc(C(F)(F)F)cc1 [GW6471]	IC50	39.4

----------
targetSystem: PPARα (Homo sapiens)
methodNotes: HG5LN reporter cell assay, PPARα-mediated transcription
Format: cell-based
Design: expressed in transfected cells; host or cells: HG5LN (HeLa-derived, GAL4RE-luciferase)
particulars: inhibition of agonism by 10 nM GW7647, 16 h incubation, mean of 3 experiments ± SEM
pIC50: −log10 of the molar value.
endpoint: pIC50

smilesRepresentation	recordedValue
CCC(=O)NC[C@H](Cc1ccc(OCCc2nc(-c3ccccc3)oc2C)cc1)N/C(C)=C\C(=O)c1ccc(C(F)(F)F)cc1	6.60
O=C(Nc1ccccc1)c1cc([N+](=O)[O-])ccc1Cl	6.88
